Assay: TOX21_p53_BLA_p4_viability: Viability Assessment in the Tox21 HCT-116 p53 Agonism Beta-lactamase Assay, Phase 4 (AID 2283597);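 further: hits lower the luminescence signal meaning cytotoxicity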
Text: TOX21_p53_BLA_p4 is a cell-based, single-readout assay that uses HCT116, a human intestinal cell line, […] in a 1536-well plate.TOX21_p53_BLA_p4_viability is an assay readout measuring cellular ATP content and detected with CellTiter-Glo Luciferase-coupled ATP quantitation.TOX21_p53_BLA_p4_viability used a type of viability reporter where loss-of-signal activity can be used to understand changes in the cell viability. […]
Results filed as inconclusive are left out. Activity calls are given as the source filed them. How the source made its calls: active means hit-call score of the fitted dose curve at least 0.9, where 1 is the maximum; inconclusive means response in the unintended direction; inactive means score below 0.9.
MEASURE: AC50

Worked examples, 6 molecules total:
{"MOLECULE": "OC1(c2ccc(Cl)c(C(F)(F)F)c2)CCN(CCCC(c2ccc(F)cc2)c2ccc(F)cc2)CC1", "AC50": "20 µM (active)"}
{"MOLECULE": "CO/N=C(\\C(=O)N[C@@H]1C(=O)N2C(C(=O)[O-])=C(C[n+]3ccc(N)n3CCO)CS[C@H]12)c1csc(N)n1", "AC50": "inactive"}
{"MOLECULE": "CN(C)C(=O)Oc1cccc([N+](C)(C)C)c1", "AC50": "inactive"}
{"MOLECULE": "CO/N=C(\\C(=O)N[C@@H]1C(=O)N2C(C(=O)O)=C(COC(C)=O)CS[C@H]12)c1csc(N)n1 (stereo in doubt)", "AC50": "inactive"}
{"MOLECULE": "O=[N+]([O-])c1ccc2ncccc2c1", "AC50": "inactive"}
{"MOLECULE": "OCCN1C[C@H](O)[C@@H](O)[C@H](O)[C@H]1CO", "AC50": "inactive"}

## Task Form field: reported AC50 of CC(=O)c1ccc2c(c1)N(CCCN1CCN(CCO)CC1)c1ccccc1S2
## Result 31.6 µM (active)

## Task What do we get for CC(=O)OC(OC(C)=O)c1ccc([N+](=O)[O-])o1 ?
## Result 74.8 µM (active)

## Task What do we get for CN(C)CCCCl ?
## Result inactive

###

assay: CCTE_Shafer_MEA_dev_per_network_spike_spike_percent: CCTE's Neural Network Formation Assay for Percent of Spikes in a Network Spike, Shafer Lab (AID 2284054)
Activity calls are given as the source filed them. How the source made its calls: active means hit-call score of the fitted dose curve at least 0.9, where 1 is the maximum; inactive means score below 0.9.
Outcomes you can answer with include only these: active, inactive

{"MOLECULE": "CC1(C)S[C@@H]2[C@H](NC(=O)[C@H](N)c3ccc(O)cc3)C(=O)N2[C@H]1C(=O)O", "CLASS NAME": "inactive"}

We now examine a further molecule.
## Task Hello, I am checking results. What call was entered for CNCCC(Oc1ccc(C(F)(F)F)cc1)c1ccccc1 (stereo not drawn) ?
## Result active

###

assay: TOX21_p53_BLA_p2_viability: Viability Assessment in the Tox21 HCT-116 p53 Agonism Beta-lactamase Assay, Phase 2 (AID 2283591);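 further: compound exposure lasted 16 h at 37 °C; actives lower the ATP signal meaning cytotoxicity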
Results filed as inconclusive are left out. Active and inactive are the calls of the source. Rule for the calls: active = hit-call score of the fitted dose curve at least 0.9, where 1 is the maximum; inconclusive = response in the unintended direction; inactive = score below 0.9.
Outcomes you can answer with include only these: T = active, F = inactive

{"MOLECULE": "CC(C(=O)O)c1ccc(C2CCCCC2)c2ccccc12 (stereo not drawn)", "CLASS NAME": "F"}
{"MOLECULE": "CN(C)CCc1c[nH]c2ccc(C[C@H]3COC(=O)N3)cc12", "CLASS NAME": "F"}
{"MOLECULE": "CN(C)CCC(c1ccccc1)c1ccccn1 (stereo not drawn)", "CLASS NAME": "F"}
{"MOLECULE": "CC=CC(=O)CCCC", "CLASS NAME": "F"}

## Task Hello, I am checking results. What call was entered for CC(C)(C(=O)O)c1ccc(C(O)CCCN2CCC(C(O)(c3ccccc3)c3ccccc3)CC2)cc1 (stereo not drawn) ?
## Result F

## Task What do we get for Cc1ccsc1/C=C/C1=NCCCN1C ?
## Result F

## Task What do we get for C[Si](C)(C)C ?
## Result F
